# tested_on: photolabile unchained HLA-A*11:01 pMHC-I protein (Homo sapiens, UniProt P04439, A114D/D185E/E176A/F33Y/L180Q/S129P/T187R)
# protocol: ELISA with photolabile unchained pMHC-I protein and UV irradiation
# Assay type: binding
# measurement_setup: ELISA signal, mean; […]
So basically, if EASY_mean comes in under -0.02 it's t, and if it's -0.02 or more it's f.

{"residues": "DFGRAKLL [LR1005]", "discrete_label": "f"}
{"residues": "CLTSTVQLIMQL [TM1040]", "discrete_label": "t"}
{"residues": "TVQLIMQLMPFG [TM1044]", "discrete_label": "t"}
{"residues": "GRAKLLGA [LR1007]", "discrete_label": "t"}
{"residues": "IMQLMPFG [TM1007]", "discrete_label": "t"}
{"residues": "QLIMQLMPFGC [TM1035]", "discrete_label": "t"}
{"residues": "MQLMPFGC [TM1008]", "discrete_label": "t"}
{"residues": "IKTSPKANKEI [EX1020]", "discrete_label": "t"}

Query sequence follows.
Strictly below -0.02: is that where EASY_mean of IMQLMPFGCLL [TM1037] sits?
t

----------
# System: HLA-A*11:01 single chain protein
# Assay type: biochemical, Human
# measurement_setup: EASY MHC-I A*11:01, 2019-07-26; mean of the 2 replicates
endpoint: EZ_mean
The reply should be a number, written without any unit.

// VAIKTSPKANK [EX1018, EGFR exon 19 deletion-derived peptide] : EZ_mean value = 0.2216

Lab book: EZ_mean of IPVAIKTSPKA [EX1016] noted as -0.1024

The sequence listed as AIKTSPKANKE [EX1019] has a reported EZ_mean of -0.09791

EZ_mean reported for this sequence TSPKANKEIL [EX1015] : -0.1061

Just so you know, measured EZ_mean for KTSPKANKEIL [EX1021] came out at -0.102

Recorded result, KTSPKANKEI [EX1014] , EZ_mean: -0.1022

Briefly, EZ_mean measured for IKTSPKANKEI [EX1020] : -0.1313

// EZ_mean value for PVAIKTSPKAN [EX1017] : -0.1176

EZ_mean for TSPKANKEILD [EX1022] is -0.1213

----------
# tested_on: photolabile unchained HLA-A*11:01 pMHC-I protein (Homo sapiens, UniProt P04439, A114D/D185E/E176A/F33Y/L180Q/S129P/T187R)
# protocol: ELISA with photolabile unchained pMHC-I protein and UV irradiation
# Assay type: binding
Assign labels as follows, please: y for EASY_mean below -0.01; n for EASY_mean equal to or exceeding -0.01.

The following sequences have reported results that may help.
{"residues": "SLLDYVREH [CS1017]", "discrete_label": "n"}
{"residues": "TQLMPFGSL [CS1010]", "discrete_label": "n"}
{"residues": "ITQLMPFGSLLD [CS1042]", "discrete_label": "y"}

Now examine the next entry.
Quick check: does IPVAIKTSPKAN [EX1024] have EASY_mean under -0.01?
y

----------
EASY_mean overview
# tested_on: photolabile unchained HLA-A*11:01 pMHC-I protein (Homo sapiens, UniProt P04439, A114D/D185E/E176A/F33Y/L180Q/S129P/T187R)
# protocol: ELISA with photolabile unchained pMHC-I protein and UV irradiation
# Format: binding
Write the number on its own, no unit after it.

{"residues": "AIKTSPKA [EX1001]", "EASY_mean": -0.01453}
{"residues": "LIMQLMPFGCLL [TM1048]", "EASY_mean": -0.04956}

Form: sequence = FGRAKLLGAEE [LR1036] ; EASY_mean = -0.04853

Entry VQLITQLMPFGS [CS1039] , EASY_mean reported as -0.02003

All values here come from paper PMC7483518.
